melting point for assorted compounds

- COMPOUND: "CCCc1cccc(-c2nc(CC)sc2-c2ccnc(NC(=O)CC)c2)c1 [Example 84-8]"
  melting point: "124 to 125 °C"
- COMPOUND: "CC(=O)Nc1cc(-c2sc(C(C)O)nc2-c2cccc(C)c2)ccn1 (centres unmarked) [Example 111-1]"
  melting point: "99 to 102 °C"
- COMPOUND: "CC(=O)Nc1cc(-c2sc(C(C)OC(=O)c3ccccc3)nc2-c2cccc(Cl)c2)ccn1 (centres unmarked) [Example 103-1]"
  melting point: "152 to 154 °C"
- COMPOUND: "CCc1nc(-c2cccc(C)c2)c(-c2ccnc(NC(=O)C3CCCC3)c2)s1 [Example Compound 29-1]"
  melting point: "123 to 125 °C"
- COMPOUND: "CCOC(=O)Cc1nc(-c2cccc(Cl)c2)c(-c2ccnc(N)c2)s1 [Example Compound 21-2]"
  melting point: "154 to 155 °C"
- COMPOUND: "Cc1cccc(-c2nc(NC(=O)c3cccnc3)sc2-c2ccnc(C)c2)c1 [Example Compound 41]"
  melting point: "175 to 178 °C"
- COMPOUND: "Cc1cc(C)cc(-c2nc(-c3ccc(S(C)(=O)=O)cc3)sc2-c2ccnc(C)c2)c1 [Example Compound 58-1]"
  melting point: "196 to 197 °C"
- COMPOUND: "CC(=O)Nc1nc(-c2cc(C)cc(C)c2)c(-c2cc(C)nc(C)c2)s1 [Example Compound 40-3]"
  melting point: "266 to 267 °C"

###

melting point for assorted compounds

- COMPOUND: "Cc1cccc(-c2nc(-c3ccccc3)sc2-c2ccnc(C)c2)c1"
  melting point: "79 to 80 °C"
- COMPOUND: "COc1ccc(C(=O)Nc2nc(-c3cccc(C)c3)c(-c3ccnc(NC4CCCC4)c3)s2)cn1"
  melting point: "219 to 221 °C"
- COMPOUND: "Cc1cccc(-c2nc(NC(=O)c3ccc(Cl)nc3)sc2-c2ccnc(C)c2)c1"
  melting point: "228 to 230 °C"
- COMPOUND: "CCC(=O)Nc1cc(-c2sc(C(C)OC(=O)c3ccccc3)nc2-c2cccc(Cl)c2)ccn1 (centres unmarked)"
  melting point: "124 to 127 °C"
- COMPOUND: "Cc1cc(C)cc(-c2nc(-c3ccc([S+](C)[O-])cc3)sc2-c2cc(C)nc(C)c2)c1 (centres unmarked)"
  melting point: "151 to 154 °C"
- COMPOUND: "Nc1nc(-c2ccc(F)cc2)c(-c2ccnc(F)c2)s1"
  melting point: "243 to 245 °C"
- COMPOUND: "Cc1cc(-c2sc(NC(=O)c3cccnc3)nc2-c2ccc(F)cc2)ccn1"
  melting point: "261 to 262 °C"
- COMPOUND: "Cc1cccc(-c2nc(N3CCN(C)CC3)sc2-c2ccnc(C)c2)c1 [Example Compound 14-13]"
  melting point: "115 to 116 °C"
- COMPOUND: "CCNC(=O)Nc1cc(-c2sc(CC)nc2-c2cccc(C)c2)ccn1"
  melting point: "177 to 180 °C"
- COMPOUND: "CCc1nc(-c2ccc(Cl)cc2)c(-c2ccnc(NC(C)=O)c2)s1"
  melting point: "190 to 191 °C"
- COMPOUND: "CCc1cccc(-c2nc(CC)sc2-c2ccnc(NC(C)=O)c2)c1"
  melting point: "112 to 113 °C"
- COMPOUND: "Cc1cccc(-c2nc(C(C)OC(=O)c3ccccc3)sc2-c2ccnc(N)c2)c1 (centres unmarked)"
  melting point: "89 to 91 °C"
- COMPOUND: "CSc1ccc(-c2nc(-c3cccc(C)c3)c(-c3ccnc(F)c3)s2)cc1"
  melting point: "97 to 100 °C"
- COMPOUND: "CNc1nc(-c2cccc(C)c2)c(-c2ccnc(C)c2)s1"
  melting point: "164 to 165 °C"
- COMPOUND: "Cc1cccc(-c2nc(-c3ccc(S(C)(=O)=O)cc3)sc2-c2cc[n+]([O-])c(C)c2)c1"
  melting point: "197 to 198 °C"
- COMPOUND: "Cc1cc(C)cc(-c2nc(NC(=O)Nc3ccccc3)sc2-c2cc(C)nc(C)c2)c1"
  melting point: "219 to 222 °C"
- COMPOUND: "CC(=O)Nc1nc(-c2cccc(C)c2)c(-c2cc(C)nc(C)c2)s1"
  melting point: "185 to 187 °C"
- COMPOUND: "CCC(=O)Nc1cc(-c2sc(C(C)=O)nc2-c2cccc(Cl)c2)ccn1"
  melting point: "115 to 117 °C"
- COMPOUND: "Cc1cccc(-c2nc(-c3ccc(S(C)(=O)=O)cc3)sc2-c2ccnc(F)c2)c1"
  melting point: "195 to 199 °C"
- COMPOUND: "CCc1nc(-c2cccc(Br)c2)c(-c2ccnc(N)c2)s1"
  melting point: "132 to 134 °C"
- COMPOUND: "Cc1cc(-c2sc(N)nc2-c2ccc(F)cc2)ccn1"
  melting point: "233 to 234 °C"
- COMPOUND: "CC(=O)Nc1cc(-c2sc(C3CCN(C(C)=O)CC3)nc2-c2cccc(Cl)c2)ccn1"
  melting point: "160 to 161 °C"
- COMPOUND: "CCc1nc(-c2ccc(F)c(C)c2)c(-c2ccnc(N)c2)s1"
  melting point: "134 to 135 °C"
- COMPOUND: "CCCc1cccc(-c2nc(CC)sc2-c2ccnc(NC(C)=O)c2)c1"
  melting point: "121 to 122 °C"
- COMPOUND: "CCc1nc(-c2cccc(C)c2)c(-c2ccnc(NC3CCCCC3)c2)s1"
  melting point: "110 to 112 °C"
- COMPOUND: "CCC(=O)Nc1cc(-c2sc(-c3ccc(S(C)(=O)=O)cc3)nc2-c2cccc(C)c2)ccn1"
  melting point: "238 to 239 °C"
